Give Tryspin binding signal (FU) for every item shown.
Target: trypsin
Experiment: monoclonal phage TRF
Report the figure in FU without appending any unit label.

Tryspin binding signal (FU) in this record for KB_C08 (scFv, V domains shown) VH: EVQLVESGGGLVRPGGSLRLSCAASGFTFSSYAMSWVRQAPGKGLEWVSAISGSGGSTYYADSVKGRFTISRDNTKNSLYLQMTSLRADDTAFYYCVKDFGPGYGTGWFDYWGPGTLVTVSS VL: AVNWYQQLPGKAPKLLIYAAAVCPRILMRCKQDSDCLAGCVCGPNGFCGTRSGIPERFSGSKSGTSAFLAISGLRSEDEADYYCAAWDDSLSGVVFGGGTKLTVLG : 76800

In plain terms, KB_B11 (scFv, V domains shown) VH: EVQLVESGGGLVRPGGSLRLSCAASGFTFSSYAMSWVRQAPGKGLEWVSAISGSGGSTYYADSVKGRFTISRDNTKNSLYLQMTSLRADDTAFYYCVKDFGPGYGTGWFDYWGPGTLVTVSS VL: TQPPSVSEAPRQRVTITCGSRPCPRILMRCKQDSDCLAGCVCGPNGFCGSHNWYQQLPGSSPTTVIYEDNQRPSGVPDRFSGSIDRSSNSASLTISGLKTEDEADYYCQSYDSSNHRVVFGGGTKLTVLG has a documented Tryspin binding signal (FU) of 10300

Data origin: patent US11932673
